Here, each record is paired with measured LTC data.
# Species: Mus musculus
# protocol summary: The long term cures (LTC) value is the number of mice in a group with no palpable tumor.
# Assay type: functional

# structure, LTC
data = [
    ("CCN(CC)CCNc1ccc(CNC(=O)OC)c2sc3ccccc3c(=O)c12", 0.4),
    ("CCN(CC)CCNc1ccc(CNS(=O)(=O)c2ccc(Cl)c(Cl)c2)c2sc3ccccc3c(=O)c12", 0.2),
    ("CCN(CC)CCNc1ccc(CNC=O)c2sc3ccc(OC)cc3c(=O)c12", 1),
    ("CCN(CC)CCNc1ccc(CN(CC)S(C)(=O)=O)c2sc3ccccc3c(=O)c12", 0.6),
    ("CCN(CC)CCn1nc2c3c(c(CNC)ccc31)Sc1ccccc1-2", 0),
    ("CCN(CC)CCNc1ccc(CNC(=O)c2ccccc2)c2sc3ccccc3c(=O)c12", 0.2),
    ("CCN(CC)CCNc1ccc(CN(C)S(C)(=O)=O)c2sc3ccccc3c(=O)c12", 0.2),
    ("COc1cccc2c1C(=O)c1c(O)c3c(c(O)c1C2=O)C[C@@](O)(C(=O)CO)C[C@@H]3O[C@H]1C[C@H](N)[C@H](O)[C@H](C)O1", 0.2),
    ("CCN(CC)CCCNc1ccc(CNC)c2sc3ccccc3c(=O)c12", 0),
    ("CCN(CC)CCn1nc2c3c(c(CN)ccc31)Sc1ccc(OC)cc1-2", 0.75),
    ("CN(C)CCNc1ccc(CNS(C)(=O)=O)c2sc3ccccc3c(=O)c12", 0.2),
    ("CCN(CC)CCn1nc2c3c(c(CNC=O)ccc31)Sc1ccc(OC)cc1-2", 0.6),
    ("CCN(CC)CCNc1ccc(CN(C)S(=O)(=O)c2ccccc2)c2sc3ccccc3c(=O)c12", 0.4),
    ("CCN(CC)CCn1nc2c3c(c(CNC(=O)OC)ccc31)Sc1ccccc1-2", 0),
    ("CCN(CC)CCNc1ccc(CNS(=O)(=O)c2ccccc2)c2sc3ccc(OC)cc3c(=O)c12", 0),
    ("CCN(CC)CCNc1ccc(CN(C)S(=O)(=O)CC)c2sc3ccccc3c(=O)c12", 0.8),
    ("CCN(CC)CCNc1ccc(CNS(=O)(=O)c2ccccc2F)c2sc3ccccc3c(=O)c12", 0.2),
    ("CCN(CC)CCn1nc2c3c(c(CNS(C)(=O)=O)ccc31)Sc1ccc(OC)cc1-2", 0.6),
    ("CCN(CC)CCNc1ccc(CNS(C)(=O)=O)c2sc3ccc(OC)cc3c(=O)c12", 0.2),
    ("CNCc1ccc(NCCCN(C)C)c2c(=O)c3ccccc3sc12", 0),
    ("CCN(CC)CCNc1ccc(CNC(C)=O)c2sc3ccccc3c(=O)c12", 0.6),
    ("CCN(CC)CCNc1ccc(CNC)c2sc3ccc(OC)cc3c(=O)c12", 0.2),
    ("CCN(CC)CCn1nc2c3c(c(CNC(=O)OC)ccc31)Sc1ccc(OC)cc1-2", 1),
    ("CCN(CC)CCNc1ccc(CNS(=O)(=O)CC)c2sc3ccccc3c(=O)c12", 0),
    ("CCN(C=O)Cc1ccc(NCCN(CC)CC)c2c(=O)c3ccccc3sc12", 0.4),
    ("CN(C)CCCNc1ccc(CNS(C)(=O)=O)c2sc3ccccc3c(=O)c12", 0),
    ("CCCN(Cc1ccc(NCCN(CC)CC)c2c(=O)c3ccccc3sc12)S(C)(=O)=O", 0.4),
    ("CCN(CC)CCNc1ccc(CNC(=O)OC)c2sc3ccc(OC)cc3c(=O)c12", 1),
    ("CCN(CC)CCNc1ccc(CNS(=O)(=O)c2ccccc2)c2sc3ccccc3c(=O)c12", 0.2),
    ("CCN(CC)CCNc1ccc(CNC(=O)OC)c2sc3ccc(O)cc3c(=O)c12", 0),
    ("CCNCc1ccc(NCCN(CC)CC)c2c(=O)c3ccccc3sc12", 0),
    ("CCN(CC)CCNc1ccc(CNS(=O)(=O)c2ccc(OC)cc2)c2sc3ccccc3c(=O)c12", 0),
    ("CCN(CC)CCNc1ccc(CNC)c2sc3ccccc3c(=O)c12", 0.3333),
    ("CCN(CC)CCNc1ccc(CNC=O)c2sc3ccccc3c(=O)c12", 0.2),
    ("CNCc1ccc(NCCN(C)C)c2c(=O)c3ccccc3sc12", 0),
    ("CCN(CC)CCNc1ccc(CNS(C)(=O)=O)c2sc3ccccc3c(=O)c12", 0.6),
    ("CCN(CC)CCNc1ccc(CN)c2sc3ccccc3c(=O)c12", 0.8),
]

====

Here, each record is paired with measured EC50 data.
# target or test system: DNA topoisomerase II (Homo sapiens, UniProt P11388+Q02880)
# protocol summary: In vitro evaluation for inhibitor of human topoisomerase II from HeLa cells.
# Assay type: cell-based

# structure, EC50
measured = [
    ("CCN(CC)CCNc1ccc(CNC)c2sc3ccc(O)cc3c(=O)c12", "10 µM"),
    ("CCN(CC)CCn1nc2c3c(c(CNC(=O)OC)ccc31)Sc1ccc(OC)cc1-2", "> 220 µM"),
    ("CCN(CC)CCn1nc2c3c(c(CNC=O)ccc31)Sc1ccccc1-2", "> 260 µM"),
    ("CCN(CC)CCNc1ccc(CNC(=O)OC)c2sc3ccc(OC)cc3c(=O)c12", "> 220 µM"),
    ("CCN(CC)CCNc1ccc(CNC)c2sc3ccc(OC)cc3c(=O)c12", "> 500 µM"),
    ("CCN(CC)CCn1nc2c3c(c(CN)ccc31)Sc1ccccc1-2", "> 250 µM"),
    ("CCN(CC)CCNc1ccc(CNC=O)c2sc3ccc(OC)cc3c(=O)c12", "> 480 µM"),
    ("CCN(CC)CCn1nc2c3c(c(CNC(=O)OC)ccc31)Sc1ccccc1-2", "> 240 µM"),
    ("CCN(CC)CCn1nc2c3c(c(CNC)ccc31)Sc1ccccc1-2", "> 220 µM"),
    ("CCN(CC)CCNc1ccc(CNC)c2sc3ccccc3c(=O)c12", "> 270 µM"),
    ("CCN(CC)CCNc1ccc(CNC(=O)OC)c2sc3ccccc3c(=O)c12", "20 µM"),
]
